The measured values listed here are drawn from ChEMBL document CHEMBL1201862.

System: OVCAR-8
procedure.summary: NCI tumour cell line growth inhibition, 48 h
Activity calls are given as the source filed them. Cut-off read from the data, not from the text of the source: active = GI50 up to about 1.1 µM and inactive = higher.
Choose one outcome from this list and give only that: active, inactive

Check the results log: what was the call for CSc1n[n+]2c(s1)SCCC2 ?
inactive

Check the results log: what was the call for O=C(O)c1[nH]c2c([N+](=O)[O-])cc([N+](=O)[O-])cc2c1C(=O)O ?
inactive

Check the results log: what was the call for Cn1c(=O)c2nc(SCc3ccccn3)[nH]c2n(C)c1=S ?
inactive

Check the results log: what was the call for CCCCCCCCCCCCOC1C(COCCN2CCCCC2)OC2OC(C)(C)OC21 (stereo unspecified) ?
inactive

Check the results log: what was the call for Cc1ccc(C(=O)Nc2ncn(C3CC(O)C(CO)O3)c(=O)n2)cc1 (stereo unspecified) ?
inactive

Check the results log: what was the call for Cc1coc2c1C(=O)C(=O)c1ccccc1-2 ?
active

* * *

Test system: CAKI-1
procedure.summary: NCI tumour cell line growth inhibition, 48 h
Active and inactive are the calls of the source. Cut-off read from the data, not from the text of the source: active = GI50 up to about 1.1 µM and inactive = higher.
Choose one outcome from this list and give only that: YES (active), NO (inactive)

Check the results log: what was the call for O=C1c2ccccc2C(=O)c2nn(N=P(CP(=Nn3nc4c(n3)C(=O)c3ccccc3C4=O)(c3ccccc3)c3ccccc3)(c3ccccc3)c3ccccc3)nc21 ?
NO

Check the results log: what was the call for Oc1ccc2ccccc2c1-c1nnc(CCCCCCCCc2nnc(-c3c(O)ccc4ccccc34)o2)o1 ?
YES

Check the results log: what was the call for C/C=C(\C)[C@@H](O)C(=O)O[C@@H]1CC(C(C)(C)O)[C@](C)(CCC(=O)OC)[C@H]2[C@H](OC(=O)[C@H](O)[C@H](C)CC)C[C@]3(C)C(=CC[C@H]3[C@H]3CO[C@H](C=C(C)C)C3)[C@]12C (stereo partly drawn) ?
NO

Check the results log: what was the call for Nc1n[nH]c2nc3ccc(C(F)(F)F)cc3nc12 ?
NO

Check the results log: what was the call for COC(=O)c1c(C(=O)OC)c2ccc(-c3ccc(Cl)cc3)nn2c1C(=O)c1ccc([N+](=O)[O-])cc1 ?
NO

Check the results log: what was the call for CO/S(=N/S(=O)(=O)c1ccccc1)c1ccccc1[N+](=O)[O-] (stereo not drawn) ?
NO

Check the results log: what was the call for CC(C)=CC(Cc1ccccc1)S(=O)(=O)c1nc2ccccc2s1 (stereo not drawn) ?
NO

Check the results log: what was the call for Clc1ccc(-n2nnc(C3=NCCN3)c2-c2ccccc2)cc1 ?
NO

* * *

Test system: PC-3
procedure.summary: NCI tumour cell line growth inhibition, 48 h
Active and inactive are the calls of the source. Rule as the data show it: active = GI50 up to about 1.1 µM and inactive = higher.
measured.attribute: GI50

Return reported GI50; argument: CNC(=O)CCCNC(=O)CCCC(=O)OC
> 100 µM (inactive)

Return reported GI50; argument: CC1=C(C(=O)NNC(=O)C[N+](C)(C)C)CC(C(=O)NNC(=O)C[N+](C)(C)C)=C(C)N1
> 100 µM (inactive)

Return reported GI50; argument: COc1ccc2c(C)cc(C)nc2n1
> 100 µM (inactive)

Return reported GI50; argument: CCOC(C)O[C@H]1C(=O)OCC1(C)C (stereo partly specified)
> 100 µM (inactive)

Return reported GI50; argument: Cc1c(C)c(S(=O)(=O)N(CCCCN)OCCCN)c(C)c2c1OC(C)(C)CC2
5.47 µM (inactive)

Return reported GI50; argument: O=c1[nH]ncc2[nH]c3c(c12)CCCc1ccccc1-3
64.1 µM (inactive)

Return reported GI50; argument: Cc1nn(C(=O)c2ccc(Cl)cc2)c2c1C(c1ccc(Cl)cc1)SC(=N)N2 (stereo unspecified)
> 10 µM (inactive)

Return reported GI50; argument: N#CC(C#N)=Cn1c(=S)[nH]c2ccccc21
> 100 µM (inactive)

Return reported GI50; argument: CC(C)(C)c1cc(C(CO)OCCOCCO)cc(C(C)(C)C)c1O (stereo unspecified)
> 100 µM (inactive)

Return reported GI50; argument: O=C(c1cc(Cl)cc(Cl)c1)N(Cc1cccnc1)C(=S)N(Cc1cccnc1)C(=O)c1cc(Cl)cc(Cl)c1
18.4 µM (inactive)

Return reported GI50; argument: COc1cccc(NC(=O)CC(=O)N2N=C(C)C(/N=N/c3ccc(C(=O)O)cc3)C2=O)c1 (stereo unspecified)
> 100 µM (inactive)

* * *

System: SNB-78
procedure.summary: NCI tumour cell line growth inhibition, 48 h
The source made the active and inactive calls. No stated cut-off is given here; in the data, active = GI50 up to about 1.1 µM and inactive = higher.
measured.attribute: GI50

Return reported GI50; argument: C=C(C)C1Cc2c(cc(OC)c3c(=O)c4ccccc4n(C)c23)O1 (stereo not drawn)
> 100 µM (inactive)

Return reported GI50; argument: O=C(c1ccc(Cl)cc1)c1ccc(OCCCOc2ccc(C(=O)c3ccc(Cl)cc3)cc2Cl)c(Cl)c1
> 100 µM (inactive)

Return reported GI50; argument: Cc1ccc(C(=O)Nc2ncn(C3CC(O)C(CO)O3)c(=O)n2)cc1 (stereo not drawn)
> 65.5 µM (inactive)

Return reported GI50; argument: CN(C)CC1CC/C(=C\c2ccc(O)cc2)C1=O (stereo not drawn)
11.4 µM (inactive)

Return reported GI50; argument: CC(C(=O)OCc1ccccc1)N(Cc1ccccc1)Cc1ccccc1 (stereo not drawn)
> 100 µM (inactive)

Return reported GI50; argument: COC(OC)c1cc2c(cc1C=O)OCO2
> 100 µM (inactive)

Return reported GI50; argument: CC(=O)Nc1ccc(/C=C/c2ccc(NC(=O)Nc3ccc(/C=C/c4ccc(NC(C)=O)cc4S(=O)(=O)O)c(S(=O)(=O)O)c3)cc2S(=O)(=O)O)c(S(=O)(=O)O)c1
> 100 µM (inactive)

Return reported GI50; argument: CN(CO)c1nc(N(C)CO)nc(N(C)CO)n1 [TRIMELAMOL]
9.77 µM (inactive)

* * *

Tested on: ACHN
procedure.summary: NCI tumour cell line growth inhibition, 48 h
The source made the active and inactive calls. Cut-off read from the data, not from the text of the source: active = GI50 up to about 1.1 µM and inactive = higher.
Choose one outcome from this list and give only that: active, inactive

Check the results log: what was the call for CNC(=O)CCCNC(=O)CCCC(=O)OC ?
inactive

Check the results log: what was the call for CN(/N=C(\C(=O)O)c1ccccc1)C1=NCCCCN1 ?
inactive

Check the results log: what was the call for Cc1cc(O)nc(NN2C(Cl)C(=O)C2c2c(O)ccc3ccccc23)n1 (centres undefined) ?
inactive

Check the results log: what was the call for C/C(CN1C(=O)c2ccccc2C1=O)=N\NS(=O)(=O)c1ccc(Br)cc1 ?
inactive

Check the results log: what was the call for N#CC12C(=O)N3C(=NC(c4ccco4)NC3c3ccco3)C1(C#N)C(c1ccco1)NC1=C2CCCC1 (centres undefined) ?
inactive

Check the results log: what was the call for CNC(=O)Oc1ccc(-c2cn3cc(OC(=O)NC)ccc3n2)cc1 ?
inactive

Check the results log: what was the call for COc1ccc(C2C(Cl)C(=O)N2NC(=O)Cc2ccccc2)cc1OC (centres undefined) ?
inactive

Check the results log: what was the call for Cc1cc(N(CCC#N)CCC#N)ccc1C(/N=N/c1ccc([N+](=O)[O-])cc1)=N\NC(=O)c1ccccc1 ?
inactive

Check the results log: what was the call for O=C(O)c1[nH]c2c([N+](=O)[O-])cc([N+](=O)[O-])cc2c1C(=O)O ?
inactive

Check the results log: what was the call for COc1cc2c(cc1OC)[C@H]1C(COC(=O)Nc3ccccc3)CN1CC2 (some centres undefined) ?
inactive

Check the results log: what was the call for C=C[C@@H]1C[C@]2(C(=O)OC)Cc3nc4ccccc4nc3CC(C(=O)OC)=C2O1 ?
inactive

Check the results log: what was the call for C=CC[C@@]1([C@H](C=C)COCc2ccc(OC)cc2)CC[C@]2(C)OC(C)(C)[C@@H](c3ccccc3)N2C1=S ?
inactive

Check the results log: what was the call for CC(C)NCC(O)c1cc(OCc2ccccc2)c(OCc2ccccc2)cc1NC(=O)CCC(=O)O (centres undefined) ?
inactive

Check the results log: what was the call for Cc1ccc(S(=O)(=O)NC(=O)NC23CC4CC(CC(F)(C4)C2)C3)cc1 ?
inactive

Check the results log: what was the call for CC(=O)OCC1OC(OC2CC3C(C)(C)C(OC(C)=O)CC[C@]3(C)C3CCC45CC4(CCC5[C@@H](C)C[C@H](O)C(O)C(C)(C)O)[C@]23C)C(O)C(O)C1O (some centres undefined) ?
inactive

Check the results log: what was the call for CC(C)(C)C(=O)C(C(=O)c1ccccc1)C(=O)C(C)(C)C ?
inactive

Check the results log: what was the call for COc1cccc2c1C1(O)C2CCCCCCCCCC12OCCCO2 (centres undefined) ?
inactive

Check the results log: what was the call for COC1(OC)C2C=CC1C([C@](C)(N)CO)C2 (some centres undefined) ?
inactive

Check the results log: what was the call for COc1ccc2c(c1)OC(c1cccnc1)C(c1ccccc1)C2=O (centres undefined) ?
inactive

Check the results log: what was the call for Cc1c(C)c(S(=O)(=O)N(CCCCN)OCCCN)c(C)c2c1OC(C)(C)CC2 ?
inactive

Check the results log: what was the call for Clc1ccc(-c2cc(-c3nc4ccccc4[nH]3)no2)cc1 ?
inactive

Check the results log: what was the call for O=C(c1ccc(Cl)cc1)N(C(=O)N1CCCCC1)c1ccccc1 ?
inactive

Check the results log: what was the call for NC1CC=C(COC(=O)C(O)(c2ccccc2)C2CC2)CC1 (centres undefined) ?
inactive

Check the results log: what was the call for CC(=O)COC(=O)CC(C)=O ?
inactive

Check the results log: what was the call for NC(CCCCNc1ccn(C2OC(CO)C(O)C2O)c(=O)n1)C(=O)O (centres undefined) ?
inactive

Check the results log: what was the call for Cc1ccc(/C=C2\CN(C)CC3=C2OC(N)=C(C#N)C3c2ccc(C)cc2)cc1 (centres undefined) ?
inactive

Check the results log: what was the call for COc1ccc(C(=O)CCN(C)C)c2ccccc12 ?
inactive

Check the results log: what was the call for O=C1C=C(Br)C(=O)C12CCc1ccccc12 (centres undefined) ?
inactive

Check the results log: what was the call for O=C(CCC(=O)Nc1ccc(Cl)c(Cl)c1)CC(=O)c1ccc(Cl)cc1 ?
inactive

Check the results log: what was the call for CC(C(=O)OCc1ccccc1)N(Cc1ccccc1)Cc1ccccc1 (centres undefined) ?
inactive

Check the results log: what was the call for COC(=O)C1CCC(=O)N1C(c1ccc(OC)cc1)c1cc(OC)c(OC)c(OC)c1 (centres undefined) ?
active

Check the results log: what was the call for O=C(c1cc(Cl)cc(Cl)c1)N(Cc1cccnc1)C(=S)N(Cc1cccnc1)C(=O)c1cc(Cl)cc(Cl)c1 ?
inactive

Check the results log: what was the call for Cc1nc(C)c(N2CCNCC2)c(O)n1 ?
inactive

Check the results log: what was the call for C=C1CCC2[C@](C)(CCC[C@]2(C)C(=O)O)[C@@H]1CCc1ccoc1 (some centres undefined) ?
inactive

Check the results log: what was the call for COc1nc(C#CC(C)(C)C)nc(OC)n1 ?
inactive

Check the results log: what was the call for CC(C)=CC(Cc1ccccc1)S(=O)(=O)c1nc2ccccc2s1 (centres undefined) ?
inactive

Check the results log: what was the call for O=C(CC(C(=O)c1ccsc1)c1ccccc1)c1ccccc1 (centres undefined) ?
inactive

Check the results log: what was the call for CCCCCCCCCCSC(=O)NC ?
inactive

Check the results log: what was the call for O=C1CCCCC1S(=O)(=O)c1ccccc1 (centres undefined) ?
inactive
